Target: α1A-AR (Homo sapiens)
Sequence (P35348 1-466): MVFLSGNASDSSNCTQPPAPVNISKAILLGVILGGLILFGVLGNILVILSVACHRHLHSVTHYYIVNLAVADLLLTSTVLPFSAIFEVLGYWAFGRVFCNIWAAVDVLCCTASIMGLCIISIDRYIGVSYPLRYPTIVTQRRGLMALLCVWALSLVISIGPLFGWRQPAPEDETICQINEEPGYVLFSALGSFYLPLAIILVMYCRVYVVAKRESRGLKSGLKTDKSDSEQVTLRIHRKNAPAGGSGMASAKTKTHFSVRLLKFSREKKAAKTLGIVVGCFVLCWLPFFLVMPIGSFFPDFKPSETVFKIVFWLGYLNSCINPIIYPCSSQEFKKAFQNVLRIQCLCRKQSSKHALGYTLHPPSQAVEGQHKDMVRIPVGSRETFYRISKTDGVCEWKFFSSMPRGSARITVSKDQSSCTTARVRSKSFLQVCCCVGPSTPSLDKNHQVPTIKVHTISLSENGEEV
Assay: Competition binding with [125I]HEAT at α1A-AR (Rat-1 fibroblast membranes)
Set-up: expressed in transfected cells; host or cells: Rat-1 fibroblast cells
Conditions: 0.5 mM GTP in binding buffer; competition with 125I-HEAT; read-out: affinity for the α1A-AR
Experimental: Competition binding assays: […] Assays were performed in duplicate in HEM buffer, in a total assay volume of 1000 μl. […] The above conditions will convert all the conformations of the receptor into a single low affinity site. […] Nonspecific binding was determined experimentally in the presence of 10^−4 M phentolamine. Unbound radioactivity was separated from membrane-bound radioactivity by filtration through Whatman GF/C filter paper. […] Data are analyzed using Graphpad Prism.
pKi: −log10 of the molar value.
observable: pKi

Task: Data request, read-out pKi, for CC(C)Cc1c(OCC2=NCCN2)cccc1N(C)S(C)(=O)=O [Compound 3]
Output: ~7.00
